Molecular target: SurA (Escherichia coli, UniProt P0ABZ6)
Sequence (P0ABZ6 21-428): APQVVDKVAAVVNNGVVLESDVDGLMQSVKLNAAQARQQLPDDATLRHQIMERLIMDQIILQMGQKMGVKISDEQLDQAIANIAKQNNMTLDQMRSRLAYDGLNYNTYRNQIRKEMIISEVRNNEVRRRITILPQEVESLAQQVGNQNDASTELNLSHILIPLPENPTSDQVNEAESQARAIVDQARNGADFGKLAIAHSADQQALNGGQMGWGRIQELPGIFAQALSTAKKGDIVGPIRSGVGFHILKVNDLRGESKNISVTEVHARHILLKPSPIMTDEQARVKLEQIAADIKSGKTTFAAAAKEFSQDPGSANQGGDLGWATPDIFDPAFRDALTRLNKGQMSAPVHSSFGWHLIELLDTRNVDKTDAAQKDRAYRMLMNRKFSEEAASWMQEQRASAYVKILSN
Assay: Luciferase-based SurA activity assay (primary assay, in-house)
Format: biochemical, E. coli
Conditions: amplitude of signal; n/d: no signal detected
REPORTED_METRIC: Primary Assay Amplitude

NC(=O)c1nc(-c2ccc(F)c(N)c2)[nH]c1NC(=O)c1ccc(-c2ccccc2)cc1 [Compound 3d]	high
NC(=O)c1nc(Cc2ccc(OCC(=O)O)cc2)[nH]c1NC(=O)c1cccc(-c2ccccc2)c1 [Compound 2b]	low
NC(=O)c1nc(Cc2ccc(OCC(=O)O)cc2)[nH]c1NC(=O)c1ccc(-c2ccccc2)cc1 [Compound 2a]	high
CCOc1ccc2ccccc2c1C(=O)Nc1[nH]c(-c2cccc(N)c2)nc1C(N)=O [Compound 3e]	low
CCOc1ccc2ccccc2c1C(=O)Nc1[nH]c(-c2ccccc2O)nc1C(N)=O [Compound 3f]	low
NC(=O)c1nc(-c2cccc(N)c2)[nH]c1NC(=O)c1ccc(-c2ccccc2)cc1 [Compound 3b]	high
NC(=O)c1nc(-c2ccccc2O)[nH]c1NC(=O)c1ccc(-c2ccccc2)cc1 [Compound 3c]	high
CCOc1ccc2ccccc2c1C(=O)Nc1[nH]c(-c2ccc(F)c(N)c2)nc1C(N)=O [Compound 3g]	low

====

Biological target: SurA (Escherichia coli)
Assay: Luciferase-based SurA activity assay (primary assay, in-house)
Format: biochemical, E. coli
Conditions: QHL-10 derivatives; dose response up to 125 μM; n/d: no signal detected
Source text: The biological function of SurA is to bind and to keep outer membrane proteins that have reached the periplasm in an unfolded but folding-competent state. […] Next, the temperature of the assay is reduced to room temperature and luciferase activity is subsequently measured by addition of Luciferin and ATP. In conditions without SurA, fLuc will refold into its active conformation resulting in a luminescence signal. […]
Outcome: criterion met for Primary Assay ICmax of at least 20 µM; criterion not met for anything lower.

NC(=O)c1nc(-c2cccc(N)c2)[nH]c1NC(=O)c1ccc(-c2ccccc2)cc1 [Compound 3b]	criterion not met
NC(=O)c1nc(-c2ccc(F)c(N)c2)[nH]c1NC(=O)c1ccc(-c2ccccc2)cc1 [Compound 3d]	criterion not met
NC(=O)c1nc(-c2ccccc2O)[nH]c1NC(=O)c1ccc(-c2ccccc2)cc1 [Compound 3c]	criterion not met
NC(=O)c1nc(Cc2ccc(OCc3ccccc3)cc2)[nH]c1NC(=O)c1ccc(-c2ccccc2)cc1 [Compound 1d]	criterion met
CCOc1ccc2ccccc2c1C(=O)Nc1[nH]c(-c2ccccc2O)nc1C(N)=O [Compound 3f]	criterion not met
CCOc1ccc2ccccc2c1C(=O)Nc1[nH]c(-c2cccc(N)c2)nc1C(N)=O [Compound 3e]	criterion met
CCOc1ccc2ccccc2c1C(=O)Nc1[nH]c(-c2ccc(F)c(N)c2)nc1C(N)=O [Compound 3g]	criterion met
NC(=O)c1nc(Cc2ccc(O)cc2)[nH]c1NC(=O)c1ccc(-c2ccccc2)cc1 [Compound 2d]	criterion not met
NC(=O)c1nc(Cc2ccc(OCC(=O)O)cc2)[nH]c1NC(=O)c1cccc(-c2ccccc2)c1 [Compound 2b]	criterion met
NC(=O)c1nc(Cc2ccc(OCC(=O)O)cc2)[nH]c1NC(=O)c1ccc(-c2ccccc2)cc1 [Compound 2a]	criterion not met
COc1ccc(Cc2nc(C(N)=O)c(NC(=O)c3ccc(-c4ccccc4)cc3)[nH]2)cc1 [Compound 1f]	criterion not met
CCOC(=O)COc1ccc(Cc2nc(C(N)=O)c(NC(=O)c3ccc(-c4ccccc4)cc3)[nH]2)cc1 [Compound 1a]	criterion not met
NC(=O)c1nc(Cc2ccccc2)[nH]c1NC(=O)c1ccc(-c2ccccc2)cc1 [Compound 1e]	criterion not met

====

System: E. coli BW25113
Test: Sensitizer MIC assay (vancomycin)
Type: cell-based
Settings: 100 μM compound, wildtype strain
# Sensitizer MIC Assay (log2-fold reduction of MIC in presence of compound) BW25113 annotations
REPORTED_METRIC: Sensitizer MIC Assay (log2-fold reduction of MIC in presence of compound) BW25113 (log2-fold)

CCOc1ccc2ccccc2c1C(=O)Nc1[nH]c(-c2ccc(F)c(N)c2)nc1C(N)=O	0
NC(=O)c1nc(-c2cccc(N)c2)[nH]c1NC(=O)c1ccc(-c2ccccc2)cc1	1
CCOc1ccc2ccccc2c1C(=O)Nc1[nH]c(-c2ccccc2O)nc1C(N)=O	1
NC(=O)c1nc(-c2ccccc2O)[nH]c1NC(=O)c1ccc(-c2ccccc2)cc1	0
CCOC(=O)COc1ccc(Cc2nc(C(N)=O)c(NC(=O)c3ccc(-c4ccccc4)cc3)[nH]2)cc1	0
NC(=O)c1nc(-c2ccccc2O)[nH]c1NC(=O)Cc1cccc2ccccc12	0
NC(=O)c1nc(-c2ccc(F)c(N)c2)[nH]c1NC(=O)c1ccc(-c2ccccc2)cc1	0
NC(=O)c1nc(Cc2ccc(OCC(=O)O)cc2)[nH]c1NC(=O)c1ccccc1-c1ccccc1	0
NC(=O)c1nc(-c2ccc(F)c(N)c2)[nH]c1NC(=O)Cc1cccc2ccccc12	0

====

Target: SurA (Escherichia coli, UniProt P0ABZ6)
Assay: Microscale thermophoresis (Tuebingen, Monolith NT.115)
Assay type: binding, E. coli
Settings: read-out: MST (Kd in mM)
REPORTED_METRIC: Kd

CN(C)c1ccc(-c2nc3cc(NC(=O)Cn4cc5ccccc5n4)ccc3[nH]2)cc1	0.02 to 0.03 mM

====

Tested on: E. coli JW2496-3
Assay: Sensitizer MIC assay (vancomycin)
Assay type: cell-based
Conditions: 100 μM compound, more susceptible strain
REPORTED_METRIC: Sensitizer MIC Assay (log2-fold reduction of MIC in presence of compound) JW2496-3 (log2-fold)

CCOc1ccc2ccccc2c1C(=O)Nc1[nH]c(-c2cccc(N)c2)nc1C(N)=O [Compound 3e]	0
CCOc1ccc2ccccc2c1C(=O)Nc1[nH]c(-c2ccccc2O)nc1C(N)=O [Compound 3f]	2
CCOc1ccc2ccccc2c1C(=O)Nc1[nH]c(-c2ccc(F)c(N)c2)nc1C(N)=O [Compound 3g]	0

====

Target: SurA (Escherichia coli, UniProt P0ABZ6)
Test: Luciferase-based SurA activity assay (primary assay, in-house)
Assay type: biochemical, E. coli
Conditions: amplitude of signal; n/d: no signal detected
REPORTED_METRIC: Primary Assay Amplitude

NC(=O)c1nc(Cc2ccccc2)[nH]c1NC(=O)c1ccc(-c2ccccc2)cc1	high
COc1ccc(Cc2nc(C(N)=O)c(NC(=O)c3ccc(-c4ccccc4)cc3)[nH]2)cc1	high
CCOC(=O)COc1ccc(Cc2nc(C(N)=O)c(NC(=O)c3ccc(-c4ccccc4)cc3)[nH]2)cc1	high
NC(=O)c1nc(Cc2ccc(OCc3ccccc3)cc2)[nH]c1NC(=O)c1ccc(-c2ccccc2)cc1	low
NC(=O)c1nc(Cc2ccc(O)cc2)[nH]c1NC(=O)c1ccc(-c2ccccc2)cc1	high

These entries and their values trace back to patent US20240336573A1.
